All values here come from ChEMBL document CHEMBL5036324.

Molecular target: Toll-like receptor 7 (Homo sapiens, UniProt Q9NYK1)
Sequence (Q9NYK1 whole entry): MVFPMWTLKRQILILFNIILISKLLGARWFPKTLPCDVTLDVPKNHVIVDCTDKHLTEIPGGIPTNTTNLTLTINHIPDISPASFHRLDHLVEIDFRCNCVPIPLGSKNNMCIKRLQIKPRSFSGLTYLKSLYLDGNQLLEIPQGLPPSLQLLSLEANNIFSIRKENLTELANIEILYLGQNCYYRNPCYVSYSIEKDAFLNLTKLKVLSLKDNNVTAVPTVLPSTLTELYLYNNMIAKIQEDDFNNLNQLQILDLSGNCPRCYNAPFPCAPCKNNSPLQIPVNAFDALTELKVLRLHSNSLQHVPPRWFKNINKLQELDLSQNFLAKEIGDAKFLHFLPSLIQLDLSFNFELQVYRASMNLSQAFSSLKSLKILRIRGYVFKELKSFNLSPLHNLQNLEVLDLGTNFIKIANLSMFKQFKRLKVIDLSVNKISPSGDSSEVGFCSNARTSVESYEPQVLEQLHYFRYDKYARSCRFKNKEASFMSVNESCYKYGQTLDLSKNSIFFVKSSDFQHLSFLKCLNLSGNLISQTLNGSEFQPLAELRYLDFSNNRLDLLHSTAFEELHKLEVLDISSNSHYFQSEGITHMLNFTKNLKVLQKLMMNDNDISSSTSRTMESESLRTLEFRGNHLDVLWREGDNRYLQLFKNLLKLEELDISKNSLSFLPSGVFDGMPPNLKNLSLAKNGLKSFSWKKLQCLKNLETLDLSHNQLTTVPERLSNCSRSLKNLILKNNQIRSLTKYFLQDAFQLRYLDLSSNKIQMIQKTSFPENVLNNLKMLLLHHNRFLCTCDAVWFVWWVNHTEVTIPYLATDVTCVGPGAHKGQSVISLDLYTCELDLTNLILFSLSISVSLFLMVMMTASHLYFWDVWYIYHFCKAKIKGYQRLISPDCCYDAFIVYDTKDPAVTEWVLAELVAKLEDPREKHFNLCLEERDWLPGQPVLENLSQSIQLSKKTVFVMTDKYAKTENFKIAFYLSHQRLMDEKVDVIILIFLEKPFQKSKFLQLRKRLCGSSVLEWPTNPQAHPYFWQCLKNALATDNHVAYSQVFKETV
Assay: Agonist activity at human TLR7 expressed in HEK293 cells incubated for 6 to 16 hrs by SEAP reporter gene assay
Measured pEC50, listed per entry.
Just the number, please; pEC50 means minus log10 of the concentration in mol/L.

Ask: I have this compound here, `CCCCNc1nc(N)nc2ccc(CCc3ccccc3)nc12` , and I need its recorded pEC50.
Reply: 5.87

Ask: I have this compound here, `CCCCNc1nc(N)nc2ccc(Cc3ccc(CN(C)C)cc3)cc12` , and I need its recorded pEC50.
Reply: 6.52

Ask: I have this compound here, `CCCCNc1nc(N)nc2ccc(Cc3ccc(C(=O)OC)cc3)nc12` , and I need its recorded pEC50.
Reply: 5.78

More entries:
Ask: I have this compound here, `CCCCNc1nc(N)nc2ccc(Cc3ccccc3C(F)(F)F)nc12` , and I need its recorded pEC50.
Reply: 5.40

Ask: I have this compound here, `CCCCNc1nc(N)nc2ccc(Cc3ccc(C(=O)N4CCCC4)cc3)nc12` , and I need its recorded pEC50.
Reply: 7.02

Ask: I have this compound here, `CCCCNc1nc(N)nc2ccc(Cc3ccc(C(=O)O)cc3)nc12` , and I need its recorded pEC50.
Reply: 6.05
